FYI, the data here is from patent US9969755B2.

Φf (fluorescence quantum yield) values for the molecules below.
# EXPERIMENT SUMMARY: Absorption and steady-state fluorescence, fluorescence quantum yield in acetonitrile
# Format: physicochemical
# CONDITION INFO: acetonitrile, room temperature
Please reply with the value in numeric form only.

Record excerpt, results attached:
{"columns": ["MOLECULE", "Φf (fluorescence quantum yield)"],
 "data": [
  ["CC1=C(I)C(C)=[N+]2C1=C(C)c1c(C)c(I)c(C)n1[B-]2(F)F", 0.03],
  ["CC(=O)OCC1=C2C(C)=C(Br)C(C)=[N+]2[B-](F)(F)n2c(C)c(Br)c(C)c21", 0.14],
  ["CC1=C(I)C(C)=[N+]2C1=C(COC(=O)C1(C)CCc3c(C)c(O)c(C)c(C)c3O1)c1c(C)c(I)c(C)n1[B-]2(F)F (racemic)", 0.009]
]}

Below: the item to evaluate.
Query block: Data request, read-out Φf (fluorescence quantum yield), for CC(=O)OCC1=C2C(C)=C(I)C(C)=[N+]2[B-](F)(F)n2c(C)c(I)c(C)c21
Result block: 0.02
